Cited source: ChEMBL document CHEMBL3045290

- Tested on: Helicoverpa armigera
- ASSAY TEXT: Insecticidal activity against Helicoverpa armigera fed on artificial diet containing compound assessed as mortality at 250 ug/ml after 96 hr
- Assay type: functional
compounds and their reported mortality at 250 µg/mL
Numeric answer only, unit % assumed.

Prompt: Look up and report measured mortality at 250 µg/mL for this entry: O=C(c1ccccc1OCc1ccc(Cl)nc1)N1CCOCC1
Response: 0

Prompt: Look up and report measured mortality at 250 µg/mL for this entry: O=C(Nc1cc(Cl)c(OC(F)(F)C(F)F)c(Cl)c1)c1ccccc1OCc1ccc(Cl)nc1
Response: 41

Prompt: Look up and report measured mortality at 250 µg/mL for this entry: Cc1ccccc1NC(=O)c1ccccc1OCc1ccc(Cl)nc1
Response: 0

Prompt: Look up and report measured mortality at 250 µg/mL for this entry: O=C(Nc1ccc(C(F)(F)F)cc1)c1ccccc1OCc1ccc(Cl)nc1
Response: 100

Prompt: Look up and report measured mortality at 250 µg/mL for this entry: O=C(Nc1ccc(I)cc1)c1ccccc1OCc1ccc(Cl)nc1
Response: 0

Prompt: Look up and report measured mortality at 250 µg/mL for this entry: CC(C)N(C(=O)c1ccccc1OCc1ccc(Cl)nc1)C(C)C
Response: 41

Prompt: Look up and report measured mortality at 250 µg/mL for this entry: O=C(Nc1ccccn1)c1ccccc1OCc1ccc(Cl)nc1
Response: 0

Then there is this compound:
Prompt: Look up and report measured mortality at 250 µg/mL for this entry: CC(C)NC(=O)c1ccccc1OCc1ccc(Cl)nc1
Response: 0

====

- Tested on: Plutella xylostella
- ASSAY TEXT: Insecticidal activity against Plutella xylostella (diamondback moth) fed on artificial diet containing compound assessed as mortality at 250 ug/ml after 96 hr
- Format: functional
compounds and their reported mortality at 250 µg/mL
Numeric answer only, unit % assumed.

Prompt: Look up and report measured mortality at 250 µg/mL for this entry: O=C(Nc1ccc(Br)cc1)c1ccccc1OCc1ccc(Cl)nc1
Response: 100

Prompt: Look up and report measured mortality at 250 µg/mL for this entry: O=C(c1ccccc1OCc1ccc(Cl)nc1)N1CCOCC1
Response: 0

Prompt: Look up and report measured mortality at 250 µg/mL for this entry: O=C(Nc1cc(C(F)(F)F)cc(C(F)(F)F)c1)c1ccccc1OCc1ccc(Cl)nc1
Response: 0

Prompt: Look up and report measured mortality at 250 µg/mL for this entry: CCN(CC)C(=O)c1ccccc1OCc1ccc(Cl)nc1
Response: 0

Prompt: Look up and report measured mortality at 250 µg/mL for this entry: O=C(Nc1cc(Cl)c(OC(F)(F)C(F)F)c(Cl)c1)c1ccccc1OCc1ccc(Cl)nc1
Response: 100

Then there is this compound:
Prompt: Look up and report measured mortality at 250 µg/mL for this entry: Cc1ccccc1NC(=O)c1ccccc1OCc1ccc(Cl)nc1
Response: 0

====

- System: Plutella xylostella
- ASSAY TEXT: Insecticidal activity against Plutella xylostella (diamondback moth) fed on artificial diet containing compound assessed as mortality at 250 ug/ml after 96 hr
- Format: functional
RESULT TYPE: mortality at 250 µg/mL (%)
Numeric answer only, unit % assumed.

Recorded results for 5 compounds are shown here.
Prompt: Look up and report measured mortality at 250 µg/mL for this entry: O=C(Nc1ccc(I)cc1)c1ccccc1OCc1ccc(Cl)nc1
Response: 100

Prompt: Look up and report measured mortality at 250 µg/mL for this entry: O=C(Nc1ccc(F)cc1)c1ccccc1OCc1ccc(Cl)nc1
Response: 41

Prompt: Look up and report measured mortality at 250 µg/mL for this entry: O=C(Nc1ccccn1)c1ccccc1OCc1ccc(Cl)nc1
Response: 41

Prompt: Look up and report measured mortality at 250 µg/mL for this entry: CC(C)N(C(=O)c1ccccc1OCc1ccc(Cl)nc1)C(C)C
Response: 100

Prompt: Look up and report measured mortality at 250 µg/mL for this entry: N#CCN(C(=O)c1ccccc1OCc1ccc(Cl)nc1)c1ccccc1
Response: 0

Then there is this compound:
Prompt: Look up and report measured mortality at 250 µg/mL for this entry: O=C(Nc1ccc(C(F)(F)F)cc1)c1ccccc1OCc1ccc(Cl)nc1
Response: 100

====

- Tested on: Helicoverpa armigera
- ASSAY TEXT: Insecticidal activity against Helicoverpa armigera fed on artificial diet containing compound assessed as mortality at 1000 ug/ml after 96 hr
- Assay type: functional
RESULT TYPE: mortality at 1000 µg/mL

Prompt: Look up and report measured mortality at 1000 µg/mL for this entry: Cc1ccccc1NC(=O)c1ccccc1OCc1ccc(Cl)nc1
Response: 0%

Prompt: Look up and report measured mortality at 1000 µg/mL for this entry: CC(C)c1ccc(NC(=O)c2ccccc2OCc2ccc(Cl)nc2)cc1
Response: 100%

Prompt: Look up and report measured mortality at 1000 µg/mL for this entry: O=C(Nc1ccc(Br)cc1)c1ccccc1OCc1ccc(Cl)nc1
Response: 100%

Prompt: Look up and report measured mortality at 1000 µg/mL for this entry: O=C(Nc1ccccc1)c1ccccc1OCc1ccc(Cl)nc1
Response: 0%

Prompt: Look up and report measured mortality at 1000 µg/mL for this entry: CC(C)NC(=O)c1ccccc1OCc1ccc(Cl)nc1
Response: 41%

***
Prompt: Look up and report measured mortality at 1000 µg/mL for this entry: O=C(Nc1cc(C(F)(F)F)cc(C(F)(F)F)c1)c1ccccc1OCc1ccc(Cl)nc1
Response: 0%

Prompt: Look up and report measured mortality at 1000 µg/mL for this entry: O=C(NC1CCCCC1)c1ccccc1OCc1ccc(Cl)nc1
Response: 0%

Prompt: Look up and report measured mortality at 1000 µg/mL for this entry: O=C(Nc1ccc(C(F)(F)F)cc1)c1ccccc1OCc1ccc(Cl)nc1
Response: 100%

====

- Test system: Helicoverpa armigera
- ASSAY TEXT: Insecticidal activity against Helicoverpa armigera fed on artificial diet containing compound assessed as mortality at 31.25 ug/ml after 96 hr
- Format: functional
compounds and their reported mortality at 31.25 µg/mL
Numeric answer only, unit % assumed.

Recorded results for 3 compounds are shown here.
Prompt: Look up and report measured mortality at 31.25 µg/mL for this entry: O=C(Nc1ccc(F)cc1)c1ccccc1OCc1ccc(Cl)nc1
Response: 0

Prompt: Look up and report measured mortality at 31.25 µg/mL for this entry: O=C(Nc1cc(C(F)(F)F)cc(C(F)(F)F)c1)c1ccccc1OCc1ccc(Cl)nc1
Response: 0

Prompt: Look up and report measured mortality at 31.25 µg/mL for this entry: O=C(Nc1ccccn1)c1ccccc1OCc1ccc(Cl)nc1
Response: 0

***
Prompt: Look up and report measured mortality at 31.25 µg/mL for this entry: CCN(CC)C(=O)c1ccccc1OCc1ccc(Cl)nc1
Response: 0

Prompt: Look up and report measured mortality at 31.25 µg/mL for this entry: CC(C)N(C(=O)c1ccccc1OCc1ccc(Cl)nc1)C(C)C
Response: 0

Prompt: Look up and report measured mortality at 31.25 µg/mL for this entry: COc1ccc(NC(=O)c2ccccc2OCc2ccc(Cl)nc2)cc1
Response: 0

Prompt: Look up and report measured mortality at 31.25 µg/mL for this entry: CC(C)NC(=O)c1ccccc1OCc1ccc(Cl)nc1
Response: 0

Prompt: Look up and report measured mortality at 31.25 µg/mL for this entry: O=C(c1ccccc1OCc1ccc(Cl)nc1)N1CCCCC1
Response: 0

Prompt: Look up and report measured mortality at 31.25 µg/mL for this entry: O=C(Nc1ccc(C(F)(F)F)cc1)c1ccccc1OCc1ccc(Cl)nc1
Response: 61

====

- System: Plutella xylostella
- ASSAY TEXT: Insecticidal activity against Plutella xylostella (diamondback moth) fed on artificial diet containing compound assessed as mortality at 250 ug/ml after 96 hr
- Type: functional
RESULT TYPE: mortality at 250 µg/mL (%)
Numeric answer only, unit % assumed.

Prompt: Look up and report measured mortality at 250 µg/mL for this entry: O=C(c1ccccc1OCc1ccc(Cl)nc1)N1CCCCC1
Response: 0

***
Prompt: Look up and report measured mortality at 250 µg/mL for this entry: Cc1cc(Cl)ccc1NC(=O)c1ccccc1OCc1ccc(Cl)nc1
Response: 41

Prompt: Look up and report measured mortality at 250 µg/mL for this entry: CC(C)c1ccc(NC(=O)c2ccccc2OCc2ccc(Cl)nc2)cc1
Response: 100

Prompt: Look up and report measured mortality at 250 µg/mL for this entry: O=C(NC1CCCCC1)c1ccccc1OCc1ccc(Cl)nc1
Response: 0

====

- Test system: Plutella xylostella
- ASSAY TEXT: Insecticidal activity against Plutella xylostella (diamondback moth) fed on artificial diet containing compound assessed as mortality at 250 ug/ml after 96 hr
- Assay type: functional
compounds and their reported mortality at 250 µg/mL
Numeric answer only, unit % assumed.

Prompt: Tell me its mortality at 250 µg/mL on Plutella xylostella: COc1ccc(NC(=O)c2ccccc2OCc2ccc(Cl)nc2)cc1
Response: 100

***
Prompt: Tell me its mortality at 250 µg/mL on Plutella xylostella: CC(C)NC(=O)c1ccccc1OCc1ccc(Cl)nc1
Response: 100

Prompt: Tell me its mortality at 250 µg/mL on Plutella xylostella: O=C(Nc1ccccc1)c1ccccc1OCc1ccc(Cl)nc1
Response: 41
